Value source: patent US20240368233A1

system_name: T1, 298B
T1 construct: also called LHD298 B; LHD298 chainB
T1 chain: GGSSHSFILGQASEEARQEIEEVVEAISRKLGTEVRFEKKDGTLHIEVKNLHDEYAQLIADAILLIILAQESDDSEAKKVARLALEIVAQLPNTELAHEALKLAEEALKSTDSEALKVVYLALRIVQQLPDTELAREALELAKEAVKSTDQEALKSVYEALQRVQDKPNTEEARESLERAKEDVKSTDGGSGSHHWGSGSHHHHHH
test_details: BLI, steady state fit
pKd: −log10 of the molar value.

binder	pKd
LHD298 chainA (designed binder, also called LHD298A) GRQEKVLKSIEETVRKMGVTMETHRSGNTVKVVIKGLHESQQEQLHKDVEETVQKEGVFVLVSHHGDTVTIQVYE	7.80
